SYSTEM: FGFR1c/alpha-klotho receptor complex, human, pre-formed (SPR analyte) (human) (UniProt P11362)
METHOD NOTES: SPR competition: FGF23 on the chip surface, FGFR1c-alphaKlotho complex in solution mixed with the competitor; Ki listed at the upper right of the sheet
pKi: −log10 of the molar value.
METRIC: pKi

* N-terminal FGF23 c-tail Fc fusion (Fc fusion, not shown: a dimerising Fc or GST; small tags and cut ends) SAEDDSERDPLNVLKPRARMTPAPASCSQELPSAEDNSPMASDPLGVVRGGRVNTHAGGTGPEGCRPFAKFI | 7.34
* Wild Type Human FGF23 c-tail 180-251 (72 amino acid peptide) (peptide) peptide: SAEDDSERDPLNVLKPRARMTPAPASCSQELPSAEDNSPMASDPLGVVRGGRVNTHAGGTGPEGCRPFAKFI | 7.51
